# measurement.target: γ-secretase (Homo sapiens, UniProt P49768)
# Construct: endogenous in cells; host or cells: SKNBE2 human neuroblastoma cells (carrying hAPP 695 wild type as substrate)
# test.summary: Screening for γ-secretase-modulating activity: Aβ42 in supernatant of SKNBE2 cells carrying hAPP 695 wild type (Alphalisa)
# Assay type: cell-based
# conditions: SKNBE2 human neuroblastoma cells carrying hAPP 695 wild type, overnight incubation, Aβ42 in cell supernatant
pIC50: −log10 of the molar value.
test.readout: pIC50

| molecule | pIC50 |
| --- | --- |
| Cc1cn(-c2ccc3n(c2=O)C[C@@H](C)N(Cc2cccc(C(C)(C)C)c2)C3=O)cn1 | 6.85 |
| COc1cc(C(C)N2C(=O)c3ccc(-n4cnc(C)c4)c(=O)n3C[C@H]2C)cc(C(F)(F)F)c1 (single isomer, unassigned) [compound 148] | 6.85 |
| CCn1cc(C(C)N2C(=O)c3ccc(-n4cnc(C)c4)c(=O)n3CC2C)c2cc(C(F)(F)F)ccc21 (single isomer, unassigned) [compound 216] | 6.92 |

1: COc1ccc(CN2CCn3c(ccc(-n4cnc(C)c4)c3=O)C2=O)cc1C(F)(F)F
2: Cc1ccc2c(c1)c(CN1C(=O)c3ccc(-n4cnc(C)c4)c(=O)n3C[C@H]1C)cn2CC(F)(F)F
3: O=C1c2ccc(-n3ccnc3)c(=O)n2CCN1Cc1cccc(-c2ccccc2)c1
4: Cc1cn(-c2ccc3n(c2=O)CCC(C)N(Cc2cc(C(F)(F)F)cc(C(F)(F)F)c2)C3=O)cn1 (centres unmarked)
Descending sort on pIC50 required. A complete answer lists every label in the requested sequence.
2, 4, 1, 3

P: Cc1cn(-c2ccc3n(c2=O)CCN(Cc2cn(C)c4c(Cl)cc(Cl)cc24)C3=O)cn1
Q: CCOCc1cc(CN2C(=O)c3ccc(-n4cnc(C)c4)c(=O)n3C[C@H]2C)cc(C(F)(F)F)c1
R: Cc1cn(-c2ccc3n(c2=O)C[C@@H](C)N(C(C)c2cccc(OC(F)(F)F)c2)C3=O)cn1 (single isomer, unassigned) [compound 147]
Put the molecules in ascending order of pIC50. A complete answer lists every label in the requested sequence.
R, Q, P

I: CCn1cc(C(C)N2C(=O)c3ccc(-n4cnc(C)c4)c(=O)n3C[C@H]2C)c2ccc(C(F)(F)F)cc21 (single isomer, unassigned) [compound 235]
II: Cc1cn(-c2ccc3n(c2=O)CC(C)N(C(C)c2cn(C)c4cc(F)c(Cl)cc24)C3=O)cn1 (single isomer, unassigned) [compound 189]
III: Cc1cn(-c2cc(F)c3n(c2=O)C[C@@H](C)N(Cc2cc(C(F)(F)F)cc(C(F)(F)F)c2)C3=O)cn1
Put the molecules in ascending order of pIC50. A complete answer lists every label in the requested sequence.
III, II, I

* * *

test.readout: melting point (°C)

| compound | melting point (°C) |
| --- | --- |
| Cc1cn(-c2ccc3n(c2=O)C[C@@H](C)N(Cc2cn(C)c4cc(F)c(Cl)cc24)C3=O)cn1 [compound 196] | 187 |
| Cc1cn(-c2ccc3n(c2=O)CCN(Cc2ccc4c(c2)OCCCO4)C3=O)cn1 [compound 93] | 192.2 |
| Cc1cn(-c2ccc3n(c2=O)CCN(Cc2cccc(Cl)c2)C3=O)cn1 [compound 25] | 176.7 |

* * *

# Tested on: Aβtotal
# test.summary: In vivo efficacy: brain soluble Aβtotal in non-transgenic rodents (ELISA)
# conditions: Mus musculus, dose 30 mg/kg oral dosing, brain soluble fraction, animals sacrificed after 4 h, untreated animals (Ctrl) set at 100, read-out: Aβtotal (% vs Ctrl)_Mean
Examples of compounds with documented response vs control in vivo at 30 mg/kg follow.
Number only, in %; omit the unit.

| compound | unit.abbreviation | response vs control in vivo at 30 mg/kg |
| --- | --- | --- |
| Cc1cn(-c2ccc3n(c2=O)C[C@@H](C)N(Cc2ccc(C(F)(F)F)c(C(F)(F)F)c2)C3=O)cn1 | % | 87 |
| CCc1cn(-c2ccc3n(c2=O)CC(C)N(Cc2cc(C(F)(F)F)cc(C(F)(F)F)c2)C3=O)cn1.Cl (stereo not drawn) | % | 94 |
| Cc1cn(-c2ccc3n(c2=O)CC(C)N(Cc2cc(C(F)(F)F)cc(C(F)(F)F)c2)C3=O)cn1 (stereo not drawn) | % | 98 |
| Cc1cn(-c2ccc3n(c2=O)C[C@@H](C)N(CCc2cc(C(F)(F)F)cc(C(F)(F)F)c2)C3=O)cn1 | % | 91 |

Record summary for Cc1cn(-c2ccc3n(c2=O)CCN(C(C)c2cccc(Cl)c2Cl)C3=O)cn1 (single isomer, unassigned) [10a] : reported response vs control in vivo at 30 mg/kg = 118

Record summary for CCC1Cn2c(ccc(-n3cnc(C)c3)c2=O)C(=O)N1Cc1cc(C(F)(F)F)cc(C(F)(F)F)c1.Cl (stereo not drawn) : reported response vs control in vivo at 30 mg/kg = 89

* * *

# measurement.target: γ-secretase (Homo sapiens, UniProt P49768)
# Construct: endogenous in cells; host or cells: SKNBE2 human neuroblastoma cells (carrying hAPP 695 wild type as substrate)
# test.summary: Screening for γ-secretase-modulating activity: Aβ42 in supernatant of SKNBE2 cells carrying hAPP 695 wild type (Alphalisa)
# Format: cell-based
# conditions: SKNBE2 human neuroblastoma cells carrying hAPP 695 wild type, overnight incubation, Aβ42 in cell supernatant
test.readout: IC50 (nM)

| compound | reported.result |
| --- | --- |
| Cc1cn(-c2ccc3n(c2=O)CC(C)N(C(C)c2cn(C)c4ccc(C(F)(F)F)cc24)C3=O)cn1 (single isomer, unassigned) [compound 215] | 10 |
| Cc1cn(-c2ccc3n(c2=O)CC(C)N(C(C)c2cn(C(C)C)c4cc(F)c(Cl)cc24)C3=O)cn1 (single isomer, unassigned) [compound 193] | 200 |
| Cc1cn(-c2ccc3n(c2=O)CCN(C(C)c2cc(Cl)cc(Cl)c2)C3=O)cn1 (single isomer, unassigned) [compound 209] | 380 |
| Cc1cn(-c2ccc3n(c2=O)C[C@@H](C)N(Cc2cc(Cl)cc(Cl)c2)C3=O)cn1 | 200 |
| COc1ccc2c(c1)c(CN1C(=O)c3ccc(-n4cnc(C)c4)c(=O)n3CC1C)cn2C(C)C (centres unmarked) | 60 |

A: Cc1cn(-c2ccc3n(c2=O)C[C@@H](C)N(Cc2ccc(Cl)c(Cl)c2)C3=O)cn1
B: Cc1cn(-c2ccc3n(c2=O)CC(C)N(Cc2ccc(C)c(N4CCCCC4)c2)C3=O)cn1 (centres unmarked)
C: Cc1cn(-c2ccc3n(c2=O)C[C@@H](C)N(Cc2cn(C)c4cc(Cl)c(Cl)cc24)C3=O)cn1
Descending sort on IC50 required. A complete answer lists every label in the requested sequence.
A, B, C

* * *

Examples of molecules with documented IC50 follow.
# measurement.target: γ-secretase (Homo sapiens, UniProt P49768)
# Construct: endogenous in cells; host or cells: SKNBE2 human neuroblastoma cells (carrying hAPP 695 wild type as substrate)
# test.summary: Screening for γ-secretase-modulating activity: Aβtotal in supernatant of SKNBE2 cells carrying hAPP 695 wild type (Alphalisa)
# Assay type: cell-based
# conditions: SKNBE2 human neuroblastoma cells carrying hAPP 695 wild type, overnight incubation, Aβtotal in cell supernatant

Example results:
| molecule | reported.result |
| --- | --- |
| Cc1nccn1-c1ccc2n(c1=O)CCN(Cc1cccc(-c3ccccc3)c1)C2=O [compound 108] | > 10 µM |
| Cc1cn(-c2ccc3n(c2=O)C[C@@H](C)N(Cc2cc(OCC(F)(F)F)cc(C(F)(F)F)c2)C3=O)cn1 [compound 166] | > 10 µM |
| COc1ccc(CN2C(=O)c3ccc(-n4cnc(C)c4)c(=O)n3C[C@H]2C)cc1C(F)(F)F [compound 67] | > 10 µM |

Now consider a different molecule.
Record summary for CCn1cc(CN2C(=O)c3ccc(-n4cnc(C)c4)c(=O)n3C[C@H]2C)c2cc(OC)c(Cl)cc21 [compound 251] : reported IC50 = 6 µM

* * *

# measurement.target: γ-secretase (Homo sapiens, UniProt P49768)
# Construct: endogenous in cells; host or cells: SKNBE2 human neuroblastoma cells (carrying hAPP 695 wild type as substrate)
# test.summary: Screening for γ-secretase-modulating activity: Aβ42 in supernatant of SKNBE2 cells carrying hAPP 695 wild type (Alphalisa)
# Assay type: cell-based
# conditions: SKNBE2 human neuroblastoma cells carrying hAPP 695 wild type, overnight incubation, Aβ42 in cell supernatant
pIC50: −log10 of the molar value.
test.readout: pIC50

Example results:
| molecule | pIC50 |
| --- | --- |
| Cc1cn(-c2ccc3n(c2=O)C[C@@H](C)N(Cc2cccc(Cl)c2F)C3=O)cn1 | 5.99 |
| Cc1cn(-c2ccc3n(c2=O)CCN(C(C)c2cn(C)c4cc(F)c(Cl)cc24)C3=O)cn1 (single isomer, unassigned) [compound 185] | 7.70 |

P: Cc1cn(-c2cc(Cl)c3n(c2=O)C[C@@H](C)N(Cc2cc(C(F)(F)F)cc(C(F)(F)F)c2)C3=O)cn1
Q: Cc1ccc2cc(CN3CCn4c(ccc(-n5cnc(C)c5)c4=O)C3=O)ccc2c1
Lab note: check whether P or Q has the lower measured pIC50. Pick one; state its label.
Q

# credit: patent US20150141411A1
